# test protocol: Peptide circular dichroism
# Format: physicochemical
# run conditions: secondary structure by CD, 25 °C, pH=6.5
measure name: Structure pH=6.5

[
  {
    "seq text": "FLGALFRALSRLL [CL-1]",
    "experimental value": "Coil"
  },
  {
    "seq text": "WLGALFKALSHLLGHHPH [CL-22]",
    "experimental value": "Coil"
  },
  {
    "seq text": "FLGALFRALSHLL [CL-7]",
    "experimental value": "Coil"
  },
  {
    "seq text": "WLGALFHALSKLL [CL-9]",
    "experimental value": "Coil"
  }
]

Could you now look at the following sequence, please?
What measured Structure pH=6.5 goes with WLGALFKALSHLL [CL-10] ?
Coil

* * *

# test protocol: Peptide circular dichroism
# Type: physicochemical
# run conditions: secondary structure by CD, 25 °C, pH=7.4
measure name: Structure pH=7.4

Use the examples below as a reference point.
[
  {
    "seq text": "WLGALFKALSHLLGHHPH [CL-22]",
    "experimental value": "α-helix"
  },
  {
    "seq text": "WLGALFKALSHLL [CL-10]",
    "experimental value": "α-helix"
  },
  {
    "seq text": "FLGALFRALSRLL [CL-1]",
    "experimental value": "Coil"
  },
  {
    "seq text": "WLGALFHALSKLL [CL-9]",
    "experimental value": "α-helix"
  }
]

Could you now look at the following sequence, please?
What measured Structure pH=7.4 goes with FLGALFRALSHLL [CL-7] ?
α-helix

* * *

# test protocol: pH sensitivity of lytic activity
# Type: biochemical
# run conditions: ratio calculated from the average IC50 values of a peptide at pH=7.4 and pH=5.5
Parameter threshold = 2. Response is true (1) when pH sensitivity meets or exceeds it, else false (0).

Exam item: decide whether the reported pH sensitivity for WLGALFHALSKLL [CL-9] is at least 2.
true (1)

Exam item: decide whether the reported pH sensitivity for FLGALFRALSRLL [CL-1] is at least 2.
false (0)

Exam item: decide whether the reported pH sensitivity for FLGALFRALSHLL [CL-7] is at least 2.
true (1)

Exam item: decide whether the reported pH sensitivity for WLGALFKALSHLL [CL-10] is at least 2.
true (1)

Exam item: decide whether the reported pH sensitivity for WLGALFKALSHLLGHHPH [CL-22] is at least 2.
true (1)

src = paper PMC4265309
